Here, each record is paired with measured SUV (bone) 20 minutes data.
assay notes: PET test using normal cynomolgus monkey (heart contrast PET, SUV in myocardium and bone ROI)
Assay type: in vivo
condition set: male normal cynomolgus monkey, about 300 MBq i.v., ROI bone (near the spine), 0 to 20 minutes after administration; n.d. = target organ cannot be confirmed in the image and ROI cannot be set
Please reply with the number alone, leaving off any unit.

Answered examples (4):
molecule	SUV (bone) 20 minutes
CCCCCCCCCCCC([18F])CCSCCC(=O)O (stereo not shown)	1.57
CC/C=C\C/C=C\C/C=C\CC([18F])CCSCCC(=O)O (stereo not shown)	0.87
CCCCCCCCC([18F])CCSCCCCC(=O)O (stereo not shown)	1.87
O=C(O)CCSCCCC/C=C\CCCCCCCC[18F] [Reference Example 15, reference compound]	1.42

Input: Param item = CCCCCCCC/C=C/CC([18F])CCSCCC(=O)O (stereo not shown) ; retrieve measured SUV (bone) 20 minutes.
Output: 1.45

Input: Also check CCCCC/C=C\C/C=C\CC([18F])CCSCCC(=O)O (stereo not shown)
Output: 2.12

Input: Also check CCCCCCCCCC([18F])CCSCCC(=O)O (stereo not shown)
Output: 1.40
